FYI, the data here is from PubChem BioAssay AID1963974.

Test system: 648629-189-R-J1-PDC spheroids with HUVEC/MSC, viability;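 also: spheroids exposed to agents for seven days before reading; percent of vehicle control luminescence where 100% = DMSO treated spheroids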
Experimental protocol: Anticancer human tumor 648629-189-R-J1-PDC patient-derived bladder carcinoma cell line growth inhibition [PI3K]
Assay context: second compound 0.01 µM; first compound 0.0316 µM; stronger effect = lower value
viability, T/C listing for selected molecules.
Express your answer in %, writing the number without its unit.

Molecule	viability, T/C, %
CC(Cn1ccc(-c2ccc(C#N)c(Cl)c2)n1)NC(=O)c1cc(C(C)O)[nH]n1 (stereo unspecified) + COc1c(OCCCN2CCOCC2)ccc2c3n(c(=NC(=O)c4cnc(N)nc4)nc12)CCN3	100
Cn1nccc1Nc1nccc(-c2ccn(C(CO)c3ccc(Cl)c(F)c3)c(=O)c2)n1 (stereo unspecified) + COc1c(OCCCN2CCOCC2)ccc2c3n(c(=NC(=O)c4cnc(N)nc4)nc12)CCN3	113
CNC(=O)c1ccc(N2C(=S)N(c3ccc(C#N)c(C(F)(F)F)c3)C(=O)C2(C)C)cc1F + COc1c(OCCCN2CCOCC2)ccc2c3n(c(=NC(=O)c4cnc(N)nc4)nc12)CCN3	117
CC(C)NCC(C(=O)N1CCN(c2ncnc3c2C(C)CC3O)CC1)c1ccc(Cl)cc1 (stereo unspecified) + COc1c(OCCCN2CCOCC2)ccc2c3n(c(=NC(=O)c4cnc(N)nc4)nc12)CCN3	102
C[C@@H](NC(=O)c1ncnc(N)c1Cl)c1ncc(C(=O)Nc2cc(C(F)(F)F)c(Cl)cn2)s1 + COc1c(OCCCN2CCOCC2)ccc2c3n(c(=NC(=O)c4cnc(N)nc4)nc12)CCN3	99.9

Switching to the query record.
Query (molecule): Cn1ncc(Cl)c1-c1cc(C(=O)NC(CN)Cc2cccc(F)c2)sc1Cl (stereo unspecified) + COc1c(OCCCN2CCOCC2)ccc2c3n(c(=NC(=O)c4cnc(N)nc4)nc12)CCN3 ; field requested: viability, T/C
97.9
